B1: FAM46C (parent)
chain: FDHLQNRLIATKNPEEIRGGGLLK

# Variants of: B1
# assay-text: protein stability index of a GFP-peptide fusion (GPS, HEK-293T) (PSI 1-6); higher = more stable;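 note: lentivirally expressed fusions sorted by FACS into six bins by GFP to DsRed ratio, PSI derived from sequencing read proportions per bin multiplied by bin number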
# cond: c terminus: a fixed tail appended
Could you label it Condition met if measured protein stability index is 4 or higher, and Condition not met otherwise?

construct_sequence=FDHLQNRLIATKNPEEIRGGGLLD discrete_label="Condition not met"

Check if protein stability index >= 4 (inclusive). Item: FDHLQNRLIATKNPEEIRMGGLLK
Condition not met

Check if protein stability index >= 4 (inclusive). Item: FRHLQNRLIATKNPEEIRGGGLLK
Condition not met

Check if protein stability index >= 4 (inclusive). Item: FDHLQNRLIATKNPEEIRGGQLLK
Condition not met

Check if protein stability index >= 4 (inclusive). Item: FDHLQNRLIATKNPEEIRGAGLLK
Condition not met

Check if protein stability index >= 4 (inclusive). Item: MDHLQNRLIATKNPEEIRGGGLLK
Condition met

Check if protein stability index >= 4 (inclusive). Item: FDHLQNALIATKNPEEIRGGGLLK
Condition met

Check if protein stability index >= 4 (inclusive). Item: FDHLQNRLIATKNPEEIAGGGLLK
Condition not met

Check if protein stability index >= 4 (inclusive). Item: FDHLQNRLITTKNPEEIRGGGLLK
Condition not met

Check if protein stability index >= 4 (inclusive). Item: FDHLQNRQIATKNPEEIRGGGLLK
Condition met

Check if protein stability index >= 4 (inclusive). Item: FDHLQNRLIATKNKEEIRGGGLLK
Condition not met

These entries and their values trace back to the supplement of paper PMC10567573.
